Sequence of the target: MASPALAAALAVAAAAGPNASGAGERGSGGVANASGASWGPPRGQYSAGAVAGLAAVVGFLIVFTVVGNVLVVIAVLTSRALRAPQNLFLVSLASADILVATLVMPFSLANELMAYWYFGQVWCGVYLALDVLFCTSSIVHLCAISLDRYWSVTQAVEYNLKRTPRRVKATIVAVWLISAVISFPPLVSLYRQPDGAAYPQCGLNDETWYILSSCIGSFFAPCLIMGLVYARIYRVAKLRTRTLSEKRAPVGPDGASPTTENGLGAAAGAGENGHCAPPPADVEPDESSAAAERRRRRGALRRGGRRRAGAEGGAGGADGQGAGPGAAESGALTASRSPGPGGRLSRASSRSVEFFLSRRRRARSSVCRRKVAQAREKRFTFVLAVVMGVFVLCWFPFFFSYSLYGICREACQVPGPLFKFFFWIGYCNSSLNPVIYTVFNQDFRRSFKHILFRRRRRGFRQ
Measured Quantity: Ki (µM)
Could you give me the number in µM? Just the number is fine.

INPUT: What value of measured Ki is listed for CCCCN(CCCC)C(=O)CN1C[C@@H](c2cc(OC)c3c(c2)OCO3)[C@H](C(=O)O)[C@H]1CC(C)(C)CCC [A-545] ?
OUTPUT: 5.77
